- procedure.text: Tmax at a dose of 4 mg/kg in Rat Plasma after iv administration
- Format: ADME, organism-based
- Set-up: dose 4 mg/kg, route intravenous
Reported Tmax values for a set of molecules
endpoint.label: Tmax (min)

1) CCc1c2c(nc3ccc(N)cc13)-c1cc3c(c(=O)n1C2)COC(=O)[C@]3(O)CC 2
2) CCc1c2c(nc3ccc(N)cc13)-c1cc3c(c(=O)n1C2)COC(=O)[C@]3([O-])CC.[Na+] 2

###

- procedure.text: Half life at a dose of 4 mg/kg in Rat Plasma after iv administration
- Type: ADME, organism-based
- Parameters: dose 4 mg/kg, route intravenous
endpoint.label: half-life (h)

1) CCc1c2c(nc3ccc(N)cc13)-c1cc3c(c(=O)n1C2)COC(=O)[C@]3([O-])CC.[Na+] 2.26

###

- procedure.text: Maximum plasma concentration at a dose of 4 mg/kg in Rat Plasma after iv administration
- Type: ADME, organism-based
- Set-up: dose 4 mg/kg, route intravenous
endpoint.label: Cmax (ng/mL)

1. CCc1c2c(nc3ccc(N)cc13)-c1cc3c(c(=O)n1C2)COC(=O)[C@]3(O)CC 10500
2. CCc1c2c(nc3ccc(N)cc13)-c1cc3c(c(=O)n1C2)COC(=O)[C@]3([O-])CC.[Na+] 10500

###

- procedure.text: Half life at a dose of 4 mg/kg in Rat Plasma after iv administration
- Format: ADME, organism-based
- Parameters: dose 4 mg/kg, route intravenous
endpoint.label: half-life

1) CCc1c2c(nc3ccc(N)cc13)-c1cc3c(c(=O)n1C2)COC(=O)[C@]3(O)CC 2.25 h
